Hello, the source for this data is paper PMC8044591, in case you need it.

assay-info: Plasma pharmacokinetics after oral administration of MNP to parasitized calves
Assay type: in vivo
test-conditions: bovine, plasma, po, 2.5 mg/kg
value-kind: half-life (h)
Note: unit h is implicit; provide only the numeric part.

[Q] Recorded half-life of C[C@](C#N)(COc1cc(C#N)ccc1C(F)(F)F)NC(=O)c1ccc(SC(F)(F)F)cc1 , please.
[A] 81

---

assay-info: Plasma pharmacokinetics after oral administration of MNP to parasitized calves
Assay type: in vivo
test-conditions: bovine, plasma, po, 2.5 mg/kg
value-kind: Cmax (ng/mL)
Note: unit ng/mL is implicit; provide only the numeric part.

[Q] Recorded Cmax of C[C@](C#N)(COc1cc(C#N)ccc1C(F)(F)F)NC(=O)c1ccc(SC(F)(F)F)cc1 , please.
[A] 21.5
